- tested system: T1, recombinant human GPC2-His protein (human, UniProt Q8N158 24-554, limits assumed)
- T1 construct: Bought protein; The SPR paragraph gives no catalogue number for GPC2-His; also called recombinant Human Glypican 2 Protein; recombinant human GPC2 protein; not shown: His tag
- T1 sequence (looked up): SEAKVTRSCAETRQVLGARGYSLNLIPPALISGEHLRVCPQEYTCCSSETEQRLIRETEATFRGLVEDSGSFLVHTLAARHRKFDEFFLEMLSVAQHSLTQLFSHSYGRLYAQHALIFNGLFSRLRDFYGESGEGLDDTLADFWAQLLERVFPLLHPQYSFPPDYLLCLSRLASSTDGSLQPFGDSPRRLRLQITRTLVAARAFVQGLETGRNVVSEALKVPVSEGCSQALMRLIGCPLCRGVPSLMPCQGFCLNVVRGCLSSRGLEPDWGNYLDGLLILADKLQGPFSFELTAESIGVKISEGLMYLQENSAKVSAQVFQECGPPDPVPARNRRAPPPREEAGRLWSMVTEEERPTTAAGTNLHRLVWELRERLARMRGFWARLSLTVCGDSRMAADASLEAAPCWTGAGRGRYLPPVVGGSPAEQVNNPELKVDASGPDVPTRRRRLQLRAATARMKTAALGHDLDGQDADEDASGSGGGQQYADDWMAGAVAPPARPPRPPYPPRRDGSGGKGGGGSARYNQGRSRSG
- protocol text: SPR, Biacore T200, GPC2-His amine-coupled to CM5 chip, VHH-hIgG1Fc as analyte, 1:1 model
- Experimental: Each of the exemplary anti-GPC2 VHH sequences was cloned into a vector comprising a human IgG1Fc fragment (hlgG1Fc) sequence to facilitate recombinant expression of anti-GPC2 VHH-hlgG1Fc. Recombinant proteins were obtained and purified for SPR assays. The affinity of each anti-GPC2 VHH-hIgG1Fc for GPC2 was determined by SPR using a BIACORE® T200 analytical system (GE Healthcare). Briefly, recombinant human GPC2-His protein was covalently coupled to a CM5(s) sensor chip using an amine coupling kit. […]
recorded endpoint: log10(koff) (log10 of the value in s⁻¹)
Hey, these are logged values: log10 of koff, s⁻¹ being the unit before logging.

[
  {
    "binder": "AS79236VH6-hIgG1Fc (Fc fusion, also called anti-GPC2 VHH-hIgG1Fc; not shown: human IgG1 Fc fragment (hIgG1Fc)) EVQLVESGGGLVQPGGSLRLSCAVSGYTYSSYCMAWFRQAPGKGLEGVASIDAGGRTTYVDSVKGRFTISKDNAKNSLYLQMNSLRAEDTAMYYCAVDVRTRCGGTWDGEAVYFPYWGQGTLVTVSS",
    "log10(koff)": -3.72
  },
  {
    "binder": "AS72669VH6-hIgG1Fc (Fc fusion, also called anti-GPC2 VHH-hIgG1Fc; not shown: human IgG1 Fc fragment (hIgG1Fc)) QVQLVESGGGVVQPGGSLRLSCAASRFTYSSYCMGWIRQAPGKGREGVAIFYTGGGRTYYADSVKGRFTISQDNSKNTLYLQMNSLRAEDTAVYYCVAGFYCSGGYWEGDFGYWGQGTLVTVSS",
    "log10(koff)": -4.11
  },
  {
    "binder": "AS70950VH6-hIgG1Fc (Fc fusion, also called anti-GPC2 VHH-hIgG1Fc; not shown: human IgG1 Fc fragment (hIgG1Fc)) EVQLVESGGGLVQPGGSLRLSCAISEFTYKNTCVGWFRQAPGKGREGVAAIDSDGNTNYVDSVKGRFTISQDNSKNTVYLQMNSLRAEDTAMYYCAAGAYCGRLLLWIGNYAYWGQGTLVTVSS",
    "log10(koff)": -3.96
  },
  {
    "binder": "AS71529VH6-AS70950VH6-hIgG1Fc (Fc fusion, Two different anti-GPC2 VHH domains in tandem, fused to a human IgG1Fc fragment; also called tandem anti-GPC2 VHH-hIgG1Fc; not shown: human IgG1 Fc fragment (hIgG1Fc)) EVQLVESGGGLVQPGGSLRLSCAVSEYRYSSRYCMGWFRQAPGKGREGVAAIDSNGSADYVDSVKGRFTISKDNSKNTLYLQMNSLRAEDTAMYYCAADHLAYDCYSGATSVFRYWGQGTLVTVSSGGGGSGGGGSGGGGSEVQLVESGGGLVQPGGSLRLSCAISEFTYKNTCVGWFRQAPGKGREGVAAIDSDGNTNYVDSVKGRFTISQDNSKNTVYLQMNSLRAEDTAMYYCAAGAYCGRLLLWIGNYAYWGQGTLVTVSS",
    "log10(koff)": -4.21
  }
]

Here is the next item to consider.
For the binder AS71529VH6-hIgG1Fc (Fc fusion, also called anti-GPC2 VHH-hIgG1Fc; not shown: human IgG1 Fc fragment (hIgG1Fc)) EVQLVESGGGLVQPGGSLRLSCAVSEYRYSSRYCMGWFRQAPGKGREGVAAIDSNGSADYVDSVKGRFTISKDNSKNTLYLQMNSLRAEDTAMYYCAADHLAYDCYSGATSVFRYWGQGTLVTVSS , what log10(koff) is on record?
-2.36
